// read-out IC50, gathered for CK1δ (Homo sapiens (Human)) from published studies
IC50 strictly under 0.4 nM means TRUE; at 0.4 nM or over means FALSE.

# check: IC50 < 0.4 nM for "O=C(Nc1cn2nc(-c3c(-c4ccc(F)cc4)ncn3CCN3CCOCC3)ccc2n1)c1ccncc1"
TRUE

Problem: For the compound "Cc1nc(-c2ccc(F)cc2)c(-c2ccc3nc(NC(=O)[C@@H]4CCC(=O)N4)cn3n2)n1C" , is IC50 under 0.4 nM?
FALSE

Item "c1ccc(-c2[nH]cnc2-c2ccc3c(c2)COC3)nc1" : IC50 beneath 0.4 nM, strictly?
FALSE

I'd appreciate it if you could check whether "N#CCCN1CCC(n2cnc(-c3ccc(F)cc3)c2-c2ccc3nc(NC(=O)c4ccnc5ccccc45)cn3n2)CC1" has IC50 smaller than 0.4 nM.
FALSE

Just wondering, is IC50 of "Cc1nc(-c2ccc(F)cc2)c(-c2ccc3nc(NC(=O)c4cccc5cnccc45)cn3n2)n1C" below 0.4 nM?
TRUE

I wonder whether "Cc1cc(C(=O)Nc2cn3nc(-c4cn(C)nc4-c4ccc(F)cc4)ccc3n2)ccn1" has IC50 below 0.4 nM. Can you tell?
FALSE

Take the compound "O=C(Nc1cn2nc(-c3c(-c4ccc(F)cc4)ncn3C3CCN(C[C@@H](O)C(F)(F)F)CC3)ccc2n1)c1ccnc(F)c1" and say whether its IC50 is less than 0.4 nM.
TRUE
